testedSystem: his-labeled human IL-13 (immunogen A) (human) (UniProt P35225)
testMethodNotes: cell-based or functional assay
Reported TARC (pg/mL), A549 cells + IL-13 5 ng/mL + TNFα; antibody at 0.004 nM by item:

Below, each entry is followed by its recorded TARC (pg/mL), A549 cells + IL-13 5 ng/mL + TNFα; antibody at 0.004 nM result.
QUERY: Tell me the measured TARC (pg/mL), A549 cells + IL-13 5 ng/mL + TNFα; antibody at 0.004 nM of 35E2C3 (lead antibody, mouse hybridoma) (antibody, V domains shown, Mouse monoclonal antibody purified from hybridoma supernatant on Protein G) VH: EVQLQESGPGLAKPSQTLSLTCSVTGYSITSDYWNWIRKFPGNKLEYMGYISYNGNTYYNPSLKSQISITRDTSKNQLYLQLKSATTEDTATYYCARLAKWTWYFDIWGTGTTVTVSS VL: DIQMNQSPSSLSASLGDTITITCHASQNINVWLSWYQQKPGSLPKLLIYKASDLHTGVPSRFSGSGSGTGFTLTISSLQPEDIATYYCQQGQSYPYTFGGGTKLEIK , please.
RESULT: 1670 pg/mL

QUERY: Tell me the measured TARC (pg/mL), A549 cells + IL-13 5 ng/mL + TNFα; antibody at 0.004 nM of 29D9H8 (lead antibody, mouse hybridoma) (antibody, V domains shown, Mouse monoclonal antibody purified from hybridoma supernatant on Protein G) VH: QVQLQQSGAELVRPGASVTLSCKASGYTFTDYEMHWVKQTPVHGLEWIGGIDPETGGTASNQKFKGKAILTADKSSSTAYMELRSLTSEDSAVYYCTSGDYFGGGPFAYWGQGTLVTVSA VL: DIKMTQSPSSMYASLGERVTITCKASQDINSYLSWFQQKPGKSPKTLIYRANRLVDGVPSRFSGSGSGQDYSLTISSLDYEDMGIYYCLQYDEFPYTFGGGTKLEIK , please.
RESULT: 1720 pg/mL

QUERY: Tell me the measured TARC (pg/mL), A549 cells + IL-13 5 ng/mL + TNFα; antibody at 0.004 nM of 70F10A10 (lead antibody, mouse hybridoma) (antibody, V domains shown) VH: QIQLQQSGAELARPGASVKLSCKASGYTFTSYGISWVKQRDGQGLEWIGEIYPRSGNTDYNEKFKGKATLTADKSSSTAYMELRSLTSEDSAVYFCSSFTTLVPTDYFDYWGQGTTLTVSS VL: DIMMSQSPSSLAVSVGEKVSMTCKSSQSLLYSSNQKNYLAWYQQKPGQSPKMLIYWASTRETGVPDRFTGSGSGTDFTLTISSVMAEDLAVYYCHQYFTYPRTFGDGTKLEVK , please.
RESULT: 1830 pg/mL

Lab note: next binder to report on.
QUERY: Tell me the measured TARC (pg/mL), A549 cells + IL-13 5 ng/mL + TNFα; antibody at 0.004 nM of 28A2E11 (lead antibody, mouse hybridoma) (antibody, V domains shown, Mouse monoclonal antibody purified from hybridoma supernatant on Protein G) VH: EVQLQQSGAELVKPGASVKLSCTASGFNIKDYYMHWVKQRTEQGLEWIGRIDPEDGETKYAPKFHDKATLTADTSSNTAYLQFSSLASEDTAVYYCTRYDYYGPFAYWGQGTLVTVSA VL: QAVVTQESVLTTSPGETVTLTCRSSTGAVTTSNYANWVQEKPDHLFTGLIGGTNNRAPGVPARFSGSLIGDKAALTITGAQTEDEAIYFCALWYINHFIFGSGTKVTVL , please.
RESULT: 1700 pg/mL

From: patent US20190309059A1
